# System: cardiomyocytes derived from hiPSCs from a LQTS3 patient
# Experimental context: LQT3 cardiomyocytes
Assay metric: LQT-Cessation Dose (µM)
# number only, unit µM dropped from output

Some solved cases for reference:
Quick one: LQT-Cessation Dose for OCCNC(COc1cc(C(F)(F)F)cc(C(F)(F)F)c1)c1ccccc1 (stereo not drawn) ?
22

Quick one: LQT-Cessation Dose for Cc1cccc(C)c1OCC(N)C1CCCCC1.Cl (stereo not drawn) ?
66

Quick one: LQT-Cessation Dose for Cc1ccc(OCC(N)c2ccccc2)c(C)c1.Cl (stereo not drawn) ?
66

Continuing:
Quick one: LQT-Cessation Dose for Cc1cccc(Cl)c1OCC(N)C1CCCCC1.Cl (stereo not drawn) ?
66

Quick one: LQT-Cessation Dose for Cl.NC(COc1cccc(C(F)(F)F)c1)c1ccccc1 (stereo not drawn) ?
66

###

# Assay target: Nav1.5 sodium channel transfected into HEK293 cells (Homo sapiens)
# Protocol notes: Patch clamp electrophysiology, peak (INaP) and late (INaL) sodium current in transfected cells
# Experimental context: read-out: Peak Na+ (INaP) IC50; transfected cells, Example 2
Assay metric: pIC50
Hey, just a heads up that pIC50 is the negative log base 10 of the concentration in molar.

Quick one: pIC50 for COCCNC(COc1ccccc1C)c1ccccc1.Cl (stereo not shown) ?
4.48

###

Measured DKr/NaL accompanies every entry in the list below.
# Assay target: hERG potassium channel (IKr) (Homo sapiens, UniProt Q12809)
# Sequence (Q12809 whole entry): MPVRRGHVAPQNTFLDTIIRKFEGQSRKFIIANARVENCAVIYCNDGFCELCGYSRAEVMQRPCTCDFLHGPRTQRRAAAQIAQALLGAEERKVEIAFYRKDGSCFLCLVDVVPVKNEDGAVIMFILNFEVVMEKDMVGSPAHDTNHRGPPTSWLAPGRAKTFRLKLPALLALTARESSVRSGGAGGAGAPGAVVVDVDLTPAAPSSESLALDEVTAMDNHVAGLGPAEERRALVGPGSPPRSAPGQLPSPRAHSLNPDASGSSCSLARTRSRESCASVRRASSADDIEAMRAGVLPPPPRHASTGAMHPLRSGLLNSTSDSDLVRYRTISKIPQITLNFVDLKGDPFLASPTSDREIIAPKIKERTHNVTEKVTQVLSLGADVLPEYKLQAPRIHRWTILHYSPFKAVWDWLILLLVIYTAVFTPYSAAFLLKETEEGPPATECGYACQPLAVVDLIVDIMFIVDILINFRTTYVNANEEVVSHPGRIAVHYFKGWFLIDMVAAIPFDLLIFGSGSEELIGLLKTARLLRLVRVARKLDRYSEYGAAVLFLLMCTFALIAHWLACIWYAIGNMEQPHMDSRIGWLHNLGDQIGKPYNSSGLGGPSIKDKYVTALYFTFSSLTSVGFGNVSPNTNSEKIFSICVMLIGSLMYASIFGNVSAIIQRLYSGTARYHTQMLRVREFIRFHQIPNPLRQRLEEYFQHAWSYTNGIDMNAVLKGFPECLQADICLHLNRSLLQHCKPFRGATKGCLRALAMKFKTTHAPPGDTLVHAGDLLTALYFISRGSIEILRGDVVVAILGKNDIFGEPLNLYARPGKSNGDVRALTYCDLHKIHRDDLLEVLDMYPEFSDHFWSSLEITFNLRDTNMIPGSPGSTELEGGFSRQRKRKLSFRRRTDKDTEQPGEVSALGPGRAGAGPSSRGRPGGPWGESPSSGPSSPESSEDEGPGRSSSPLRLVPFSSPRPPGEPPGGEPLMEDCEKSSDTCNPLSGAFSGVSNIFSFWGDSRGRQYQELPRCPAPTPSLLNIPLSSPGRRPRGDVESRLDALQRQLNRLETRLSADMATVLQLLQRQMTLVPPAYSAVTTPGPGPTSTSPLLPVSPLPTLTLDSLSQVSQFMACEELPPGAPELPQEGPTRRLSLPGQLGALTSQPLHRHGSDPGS
# Protocol notes: Automated patch clamp, hERG (IKr) expressed in CHO cells
# Experimental context: ratio hERG IC50/late Na IC50
I only need the number, thanks.

Quick one: DKr/NaL for Cc1cccc(C)c1OCC(N)C1CC1 (stereo not drawn) ?
4.1

Quick one: DKr/NaL for Cc1cccc(C)c1OCC(N)C(C)(C)C (stereo not drawn) ?
4.5

// next entry
Quick one: DKr/NaL for COCCNC(COc1cc(C(F)(F)F)cc(C(F)(F)F)c1)c1ccccc1.Cl (stereo not drawn) ?
16.5

###

# Assay target: Human FMO1 (Homo sapiens, UniProt Q01740)
# Sequence (Q01740 1-532): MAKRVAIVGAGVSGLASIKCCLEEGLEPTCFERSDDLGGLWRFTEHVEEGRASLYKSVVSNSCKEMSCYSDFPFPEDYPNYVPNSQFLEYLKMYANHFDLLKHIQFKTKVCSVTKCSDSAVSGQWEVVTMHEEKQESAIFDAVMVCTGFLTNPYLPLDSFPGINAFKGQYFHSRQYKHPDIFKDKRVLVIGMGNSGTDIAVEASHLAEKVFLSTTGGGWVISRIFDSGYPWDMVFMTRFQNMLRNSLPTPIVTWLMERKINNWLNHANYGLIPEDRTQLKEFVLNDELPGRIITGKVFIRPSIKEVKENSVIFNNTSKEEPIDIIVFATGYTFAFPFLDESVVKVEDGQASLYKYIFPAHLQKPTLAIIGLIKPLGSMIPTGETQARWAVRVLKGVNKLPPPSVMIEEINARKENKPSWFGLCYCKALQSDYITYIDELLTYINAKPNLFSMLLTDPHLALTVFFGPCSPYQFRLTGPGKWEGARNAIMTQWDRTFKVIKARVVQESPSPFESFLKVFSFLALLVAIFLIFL
# Protocol notes: Metabolism with human FMO1 (nmol metabolism/incubation)
# Experimental context: 15 μg enzyme/incubation; 30 mins, 37° C.; nmol metabolism/incubation
Assay metric: Human FMO1 (nmol/incub)
# number only, unit nmol/incub dropped from output

Some solved cases for reference:
Lookup: Human FMO1 (nmol/incub) / Human FMO1 (Homo sapiens, UniProt Q01740) / Cl.[2H]C(N)(COc1cc(C)cc(C)c1)c1ccccc1 (centres unmarked) [Compound 104b]
1.0

Lookup: Human FMO1 (nmol/incub) / Human FMO1 (Homo sapiens, UniProt Q01740) / Cc1cccc(C)c1OCC(C)N (racemic) [Mexiletine, reference compound]
6.7

Lookup: Human FMO1 (nmol/incub) / Human FMO1 (Homo sapiens, UniProt Q01740) / Cl.[2H]C(N)(COc1ccccc1C)c1ccccc1 (centres unmarked) [Compound 104c]
1.4

Lookup: Human FMO1 (nmol/incub) / Human FMO1 (Homo sapiens, UniProt Q01740) / Cl.[2H]C(N)(COc1ccccc1C(F)(F)F)c1ccccc1 (centres unmarked) [Compound 104d]
0.3

// next entry
Lookup: Human FMO1 (nmol/incub) / Human FMO1 (Homo sapiens, UniProt Q01740) / Cl.[2H]C(N)(COc1cc(C(F)(F)F)cc(C(F)(F)F)c1)c1ccccc1 (centres unmarked) [Compound 104a]
0.8

###

# Assay target: Na+ channel currents in LQT3 patient-derived cardiomyocytes (Homo sapiens)
# Sequence (Q14524 whole entry F1473C, form open): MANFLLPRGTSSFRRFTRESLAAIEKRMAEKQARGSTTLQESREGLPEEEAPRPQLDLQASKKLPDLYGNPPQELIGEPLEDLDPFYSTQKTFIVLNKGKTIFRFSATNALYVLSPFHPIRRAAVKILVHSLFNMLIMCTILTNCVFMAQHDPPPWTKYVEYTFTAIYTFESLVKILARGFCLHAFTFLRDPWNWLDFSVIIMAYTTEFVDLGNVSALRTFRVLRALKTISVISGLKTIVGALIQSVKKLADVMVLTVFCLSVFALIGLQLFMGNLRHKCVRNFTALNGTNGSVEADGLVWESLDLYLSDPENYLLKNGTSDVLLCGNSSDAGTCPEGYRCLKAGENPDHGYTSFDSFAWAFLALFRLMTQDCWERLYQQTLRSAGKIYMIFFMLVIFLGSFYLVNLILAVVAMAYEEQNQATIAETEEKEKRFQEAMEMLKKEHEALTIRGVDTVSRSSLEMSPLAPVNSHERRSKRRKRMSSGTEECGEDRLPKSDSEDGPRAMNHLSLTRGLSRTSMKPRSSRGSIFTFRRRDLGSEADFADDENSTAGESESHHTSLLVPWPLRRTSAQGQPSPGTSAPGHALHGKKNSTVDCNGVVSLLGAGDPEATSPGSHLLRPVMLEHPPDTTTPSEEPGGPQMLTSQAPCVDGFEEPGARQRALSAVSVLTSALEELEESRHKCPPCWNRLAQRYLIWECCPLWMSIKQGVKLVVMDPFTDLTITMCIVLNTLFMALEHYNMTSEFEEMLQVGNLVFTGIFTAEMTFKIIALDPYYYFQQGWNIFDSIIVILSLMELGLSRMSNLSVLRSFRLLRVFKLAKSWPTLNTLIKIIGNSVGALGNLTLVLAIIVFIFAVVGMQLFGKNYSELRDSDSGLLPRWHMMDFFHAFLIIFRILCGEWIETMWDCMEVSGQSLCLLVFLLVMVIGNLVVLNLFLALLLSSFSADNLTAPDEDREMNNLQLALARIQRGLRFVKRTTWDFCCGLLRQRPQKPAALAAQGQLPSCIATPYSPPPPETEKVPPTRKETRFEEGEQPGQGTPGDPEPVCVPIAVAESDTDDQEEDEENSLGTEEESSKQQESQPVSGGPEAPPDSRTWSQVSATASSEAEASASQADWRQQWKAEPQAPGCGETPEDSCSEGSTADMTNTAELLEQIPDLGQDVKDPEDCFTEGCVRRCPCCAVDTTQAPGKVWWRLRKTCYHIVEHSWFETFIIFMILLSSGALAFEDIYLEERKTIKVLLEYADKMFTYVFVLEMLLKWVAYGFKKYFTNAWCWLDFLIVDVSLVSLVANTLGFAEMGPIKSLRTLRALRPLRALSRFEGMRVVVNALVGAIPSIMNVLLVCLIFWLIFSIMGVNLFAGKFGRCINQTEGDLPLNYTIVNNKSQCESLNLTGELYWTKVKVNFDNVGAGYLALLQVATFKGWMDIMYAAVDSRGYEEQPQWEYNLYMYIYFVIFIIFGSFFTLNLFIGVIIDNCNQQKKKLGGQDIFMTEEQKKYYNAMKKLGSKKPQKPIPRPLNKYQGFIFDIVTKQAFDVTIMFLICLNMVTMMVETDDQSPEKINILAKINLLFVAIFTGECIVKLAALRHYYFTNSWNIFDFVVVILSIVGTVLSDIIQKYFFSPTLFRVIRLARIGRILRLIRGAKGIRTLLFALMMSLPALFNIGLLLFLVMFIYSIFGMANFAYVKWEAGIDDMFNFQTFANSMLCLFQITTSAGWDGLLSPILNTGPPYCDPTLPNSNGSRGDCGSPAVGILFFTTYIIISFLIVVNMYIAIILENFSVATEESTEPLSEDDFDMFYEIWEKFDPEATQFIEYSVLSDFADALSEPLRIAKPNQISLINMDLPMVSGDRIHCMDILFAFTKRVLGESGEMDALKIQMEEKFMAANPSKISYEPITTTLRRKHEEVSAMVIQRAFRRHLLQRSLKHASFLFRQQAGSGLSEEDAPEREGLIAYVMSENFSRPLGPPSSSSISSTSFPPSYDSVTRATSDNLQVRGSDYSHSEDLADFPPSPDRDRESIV
# Protocol notes: Whole cell patch clamp of Na+ currents (INaP, INaL) in hIPSC LQT3 patient-derived cardiomyocytes
# Assay type: cell-based
# Experimental context: whole-cell voltage clamp, steps -80 mV to +40 mV; table title says transfected CHO cells; read-out: IC50 for INaL
Assay metric: pIC50
Hey, just a heads up that pIC50 is the negative log base 10 of the concentration in molar.

Quick one: pIC50 for Cc1ccccc1OCC(N)c1ccccc1 (stereo not drawn) [Compound 25, 1-phenyl-2-(o-tolyloxy)ethanamine] ?
5.77

Quick one: pIC50 for COCCNC(COc1cccc(C)c1C)c1ccccc1 (racemic) [Compound 36] ?
6.42

Quick one: pIC50 for Cc1cc(C)cc(OCC(N)c2ccccc2)c1.Cl (racemic) [Compound 70, hydrochloride] ?
6.27

###

# Protocol notes: Metabolism in mouse hepatic S9
# Experimental context: 0.5 mg of protein
Assay metric: % Metabolism Mouse S9 (%)
# number only, unit % dropped from output

Quick one: % Metabolism Mouse S9 for NC(COc1ccccc1C(F)(F)F)c1ccccc1 (stereo not shown) [drawing 308] ?
55.0

Quick one: % Metabolism Mouse S9 for Cc1cc(C)cc(OCC(N)c2ccccc2)c1 (stereo not shown) [drawing 306] ?
13.6

Quick one: % Metabolism Mouse S9 for Cc1ccccc1OCC(N)c1ccccc1 (stereo not shown) [drawing 307] ?
34.6

// next entry
Quick one: % Metabolism Mouse S9 for NC(COc1cc(C(F)(F)F)cc(C(F)(F)F)c1)c1ccccc1 (stereo not shown) [drawing 305] ?
11.6

###

# Tested on: normal human induced pluripotent stem cell (hiPSC) cardiomyocyte
# Experimental context: deuterated vs non-deuterated
Assay metric: WT-Cess. Dose
Remember to quote the unit after the number.

Some solved cases for reference:
Quick one: WT-Cess. Dose for Cl.[2H]C(N)(COc1cc(C)cc(C)c1)c1ccccc1 (centres unmarked) [Compound 104b] ?
22 µM

Quick one: WT-Cess. Dose for Cc1cc(C)cc(OCC(N)c2ccccc2)c1.Cl (racemic) [Compound 70] ?
66 µM

Quick one: WT-Cess. Dose for Cl.[2H]C(N)(COc1cc(C(F)(F)F)cc(C(F)(F)F)c1)c1ccccc1 (centres unmarked) [Compound 104a] ?
66 µM

Quick one: WT-Cess. Dose for Cl.NC(COc1cc(C(F)(F)F)cc(C(F)(F)F)c1)c1ccccc1 (centres unmarked) [Compound 78] ?
133 µM

// next entry
Quick one: WT-Cess. Dose for Cl.[2H]C(N)(COc1ccccc1C(F)(F)F)c1ccccc1 (centres unmarked) [Compound 104d] ?
22 µM

###

Measured DNap/NaL accompanies every entry in the list below.
# Assay target: Nav1.5 sodium channel transfected into HEK293 cells (Homo sapiens)
# Protocol notes: Patch clamp electrophysiology, peak (INaP) and late (INaL) sodium current in transfected cells
# Experimental context: ratio peak/late IC50, Example 2
I only need the number, thanks.

Some solved cases for reference:
Lookup: DNap/NaL / Nav1.5 sodium channel transfected into HEK293 cells (Homo sapiens) / Cc1cccc(OCC(N)c2ccccc2)c1C (centres unmarked)
10.6

Lookup: DNap/NaL / Nav1.5 sodium channel transfected into HEK293 cells (Homo sapiens) / Cc1ccncc1OCC(N)c1ccccc1.Cl (centres unmarked)
87.4

Lookup: DNap/NaL / Nav1.5 sodium channel transfected into HEK293 cells (Homo sapiens) / Cc1cc(C)cc(OCC(N)C2CC2)c1.Cl (centres unmarked)
7.68

Lookup: DNap/NaL / Nav1.5 sodium channel transfected into HEK293 cells (Homo sapiens) / COCCNC(COc1ccccc1C)c1ccccc1.Cl (centres unmarked)
11.8

Lookup: DNap/NaL / Nav1.5 sodium channel transfected into HEK293 cells (Homo sapiens) / Cc1cc(C)cc(OCC(N)C2CCCCC2)c1.Cl (centres unmarked)
15.3

Continuing:
Lookup: DNap/NaL / Nav1.5 sodium channel transfected into HEK293 cells (Homo sapiens) / Cl.NC(COc1cc(C(F)(F)F)cc(C(F)(F)F)c1)c1ccccc1 (centres unmarked)
19.4

Lookup: DNap/NaL / Nav1.5 sodium channel transfected into HEK293 cells (Homo sapiens) / COCCNC(COc1cc(C(F)(F)F)cc(C(F)(F)F)c1)c1ccccc1.Cl (centres unmarked)
44.2

Lookup: DNap/NaL / Nav1.5 sodium channel transfected into HEK293 cells (Homo sapiens) / Cc1cccnc1OCC(O)c1ccccc1 (centres unmarked)
6.1

Lookup: DNap/NaL / Nav1.5 sodium channel transfected into HEK293 cells (Homo sapiens) / COCCNC(COc1cc(C)cc(C)c1)c1ccccc1.Cl (centres unmarked)
50.5

Lookup: DNap/NaL / Nav1.5 sodium channel transfected into HEK293 cells (Homo sapiens) / Cc1ccc(OCC(N)c2ccccc2)c(C)c1.Cl (centres unmarked)
10.7

Lookup: DNap/NaL / Nav1.5 sodium channel transfected into HEK293 cells (Homo sapiens) / COCCNC(COc1ccccc1C(F)(F)F)c1ccccc1.Cl (centres unmarked)
38.9
